These data points were gathered from paper PMC9427005.

target: SARS-CoV-2 Wuhan-Hu-1 RBD for SPR binding assays (SARS-CoV-2 Wuhan-Hu-1 (NC_045512.2), UniProt P0DTC2); test: SPR; settings: both partners purified
EXPERIMENTAL ENDPOINT: kon (M⁻¹ s⁻¹)
A number alone suffices; assume M⁻¹ s⁻¹.

Input line: Name the recorded kon for S2X35 IgG (antibody, V domains shown) VH: QVQLVQSGAEVKKPGASVKVSCKASGYTFTNYGISWVRQAPGQGLEWMGWISAYKGNTNYAQKLQGRVTMTTDTSTSTAYMELRSLRSDDTAVYYCARPDYQVLGYDFWIGYYGMDVWGQGTTVIVSS VL: QSVLTQPPSVSGAPGQRVTISCTGSSSNIGAGYDVHWYQQLPGTAPKLLIYGNTNRPSGVPDRFSGSKSGTSASLAITGLQAEDEADYYCQSYDSSLSGSEVVFGGGTKLTVL .
Output line: 570000

Input line: Ok, now REGN10933 IgG1 (antibody, V domains shown, IgG1) VH: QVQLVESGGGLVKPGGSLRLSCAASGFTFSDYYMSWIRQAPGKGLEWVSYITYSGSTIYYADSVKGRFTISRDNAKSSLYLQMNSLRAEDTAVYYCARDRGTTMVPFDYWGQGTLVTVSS VL: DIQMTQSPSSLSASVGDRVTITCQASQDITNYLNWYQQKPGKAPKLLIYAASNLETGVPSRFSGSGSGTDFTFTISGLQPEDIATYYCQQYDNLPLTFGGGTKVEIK
Output line: 5.29e+06

Input line: Proceed to ADI-58125 IgG1 (antibody, V domains shown, IgG1) VH: EVQLVESGGGLVKPGGSLRLSCAASGFTFSSYYMNWVRQAPGKGLEWVSSISEDGYSTYYPDSLKGRFTISRDSAKNSLYLQMNSLRADDTAVYYCARDFSGHTAWAGTGFEYWGQGTLVTVSS VL: QSVLTQPPSVSGAPGQRITISCTGSSSNIGAGYDVHWYQQLPGTAPKLLIYGSSSRNSGVPDRFSGSKSGTSASLAITGLQAEDEADYYCQSYDSSLSVLYTFGTGTKVTVL
Output line: 1.15e+06

Input line: Please do the same for CT-P59 IgG1 (antibody, V domains shown, IgG1) VH: QITLKESGPTLVKPTQTLTLTCSFSGFSLSTSGVGVGWIRQPPGKALEWLALIDWDDNKYHTTSLKTRLTISKDTSKNQVVLTMTNMDPVDTATYYCARIPGFLRYRNRYYYYGMDVWGQGTTVTVSS VL: ELVLTQPPSVSAAPGQKVTISCSGSSSNIGNNYVSWYQQLPGTAPKLLIYDNNKRPSGIPDRFSGSKSGTSATLGITGLQTGDEADYYCGTWDSSLSAGVFGGGTELTVL as well.
Output line: 5.54e+06
